Entries and their measured pKi follow.
molecular target: 5-hydroxytryptamine receptor 6 (Homo sapiens, UniProt P50406); assay: Binding affinity as displacement of [3H]5-HT binding to 5-hydroxytryptamine 6 receptor in HeLa cells.; format: cell-based
Sequence (P50406 whole entry): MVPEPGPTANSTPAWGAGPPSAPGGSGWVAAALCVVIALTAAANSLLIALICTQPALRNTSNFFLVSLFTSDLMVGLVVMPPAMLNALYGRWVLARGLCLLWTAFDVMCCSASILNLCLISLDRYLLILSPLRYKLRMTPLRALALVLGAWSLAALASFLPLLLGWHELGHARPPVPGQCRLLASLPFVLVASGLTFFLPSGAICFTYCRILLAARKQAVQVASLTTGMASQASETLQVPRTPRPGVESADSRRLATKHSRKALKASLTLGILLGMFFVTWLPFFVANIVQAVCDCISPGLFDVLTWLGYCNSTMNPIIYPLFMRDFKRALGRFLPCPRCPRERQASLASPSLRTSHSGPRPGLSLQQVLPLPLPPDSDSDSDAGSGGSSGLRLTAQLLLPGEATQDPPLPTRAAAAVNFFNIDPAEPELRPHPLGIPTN
// field semantics: pKi = negative decimal log of concentration (mol/L)

Use the examples below as a reference point.
1) CN(C)CCc1cccc2c1cc(C(=O)c1ccccc1)n2S(=O)(=O)c1ccccc1 :: 8.52
2) CO[C@H]1c2cccc3c2c(cn3S(=O)(=O)c2ccc(C)cc2)C[C@@H]1N(C)C :: 6.89
3) CN(C)CCc1cn(S(=O)(=O)c2ccccc2)c2ccc(C#N)cc12 :: 7.48

Input line: Find the measured pKi of CCOC(=O)c1[nH]c2ccccc2c1CCN(C)C with 5-hydroxytryptamine receptor 6 (Homo sapiens, UniProt P50406) as test system.
Output line: 7.70

Input line: Find the measured pKi of COc1cccc(Cc2noc(-c3[nH]c4ccccc4c3CCN(C)C)n2)c1 with 5-hydroxytryptamine receptor 6 (Homo sapiens, UniProt P50406) as test system.
Output line: 8.89

====

target: D(2) dopamine receptor (Homo sapiens); assay: Binding affinity against dopamine receptor D2 using [3H]spiperone radioligand in CHO cells
Sequence (P14416 whole entry): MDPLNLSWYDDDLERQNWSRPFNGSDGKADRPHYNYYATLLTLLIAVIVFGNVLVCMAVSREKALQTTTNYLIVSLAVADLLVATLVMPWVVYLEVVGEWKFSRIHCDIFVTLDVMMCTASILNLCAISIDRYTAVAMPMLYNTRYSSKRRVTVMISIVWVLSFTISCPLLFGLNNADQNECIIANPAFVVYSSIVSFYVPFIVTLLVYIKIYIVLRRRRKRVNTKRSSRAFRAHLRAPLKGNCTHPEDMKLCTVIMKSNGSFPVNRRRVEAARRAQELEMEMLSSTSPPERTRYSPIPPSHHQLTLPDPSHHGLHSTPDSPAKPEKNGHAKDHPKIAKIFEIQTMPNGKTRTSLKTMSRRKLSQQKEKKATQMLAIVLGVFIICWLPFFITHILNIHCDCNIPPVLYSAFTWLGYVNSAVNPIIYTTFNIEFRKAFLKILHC
quantityName: pKi
// field semantics: pKi = negative decimal log of concentration (mol/L)

Use the examples below as a reference point.
1. COc1ccc2c(c1)c(CCN(C)C)cn2S(=O)(=O)c1ccccc1 :: 6.68
2. CCOC(=O)c1[nH]c2ccccc2c1CCN(C)C :: 7.23

Input line: Using known records, supply pKi for CN(C)CCc1cn(S(=O)(=O)c2ccccc2)c2ccccc12
Output line: 7.21

Input line: Using known records, supply pKi for CN(C)CCc1cccc2c1ccn2S(=O)(=O)c1ccccc1
Output line: 5.80

Input line: Using known records, supply pKi for CN(C)CCc1cccc2c1cc(C(=O)c1ccccc1)n2S(=O)(=O)c1ccccc1
Output line: 6.12

====

Here we list compounds with their recorded pKi when tested on 5-hydroxytryptamine receptor 2A (Rattus norvegicus, UniProt P14842).
Sequence (P14842 whole entry): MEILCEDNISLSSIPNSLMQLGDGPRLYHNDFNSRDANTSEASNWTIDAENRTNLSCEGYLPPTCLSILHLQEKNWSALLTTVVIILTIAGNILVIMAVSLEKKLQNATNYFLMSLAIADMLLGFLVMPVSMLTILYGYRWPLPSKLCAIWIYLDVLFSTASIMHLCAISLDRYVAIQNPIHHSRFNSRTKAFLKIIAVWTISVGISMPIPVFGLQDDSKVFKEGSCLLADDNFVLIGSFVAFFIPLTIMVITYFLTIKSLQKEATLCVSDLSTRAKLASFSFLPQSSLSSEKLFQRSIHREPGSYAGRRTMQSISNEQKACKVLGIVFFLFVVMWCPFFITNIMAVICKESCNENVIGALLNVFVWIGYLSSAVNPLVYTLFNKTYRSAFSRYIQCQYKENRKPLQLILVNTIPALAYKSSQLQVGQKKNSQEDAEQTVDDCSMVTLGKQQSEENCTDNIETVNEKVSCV
// field semantics: pKi = negative decimal log of concentration (mol/L)

1) CCOC(=O)c1[nH]c2ccccc2c1CCN(C)C :: 6.89

Input line: Using known records, supply pKi for CN(C)CCc1cn(S(=O)(=O)c2ccccc2)c2ccccc12
Output line: 7.08

Input line: Using known records, supply pKi for COc1ccc2c(c1)c(CCN(C)C)cn2S(=O)(=O)c1ccccc1
Output line: 7.19

Input line: Using known records, supply pKi for CN(C)CCc1cn(C(=O)c2ccccc2)c2ccc(O)cc12
Output line: 6.70

====

target: UniProt P50406; assay: Binding affinity as displacement of [3H]5-HT binding to 5-hydroxytryptamine 6 receptor in HeLa cells; format: cell-based
quantityName: Ki (nM)
Answer in nM, number only, no unit symbol.

Input line: Using known records, supply Ki for CN(C)CCCc1cccc2c1ccn2S(=O)(=O)c1ccccc1
Output line: 7.9

====

target: UniProt:P28221; experiment: Binding affinity against 5-hydroxytryptamine 1D receptor in CHO cells using [3H]5-HT as radioligand
Sequence (P28221 whole entry): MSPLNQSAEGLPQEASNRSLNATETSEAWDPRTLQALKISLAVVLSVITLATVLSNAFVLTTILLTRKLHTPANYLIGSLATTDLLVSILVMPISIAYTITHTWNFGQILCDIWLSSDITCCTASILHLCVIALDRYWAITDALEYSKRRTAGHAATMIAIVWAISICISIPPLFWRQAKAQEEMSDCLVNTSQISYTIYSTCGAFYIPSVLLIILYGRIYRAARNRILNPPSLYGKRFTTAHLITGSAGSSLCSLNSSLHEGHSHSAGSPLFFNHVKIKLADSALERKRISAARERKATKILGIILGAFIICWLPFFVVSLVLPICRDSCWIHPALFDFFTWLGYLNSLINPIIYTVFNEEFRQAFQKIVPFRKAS
Entries and their measured pKi follow.
// field semantics: pKi = negative decimal log of concentration (mol/L)

Use the examples below as a reference point.
1. COc1ccc2c(c1)c(CCN(C)C)cn2S(=O)(=O)c1ccccc1 :: 6.14
2. CN(C)CCc1cccc2c1cc(C(=O)c1ccccc1)n2S(=O)(=O)c1ccccc1 :: 7.01
3. Cc1ccc(S(=O)(=O)n2cc3c4c(cccc42)[C@H](O)[C@@H](N(C)C)C3)cc1 :: 5.41
4. CN(C)CCc1cn(C(=O)c2ccccc2)c2ccc(O)cc12 :: 6.74
5. NCCc1cccc2c1ccn2S(=O)(=O)c1ccccc1 :: 8.35

Input line: Find the measured pKi of CCOC(=O)c1[nH]c2ccccc2c1CCN(C)C with UniProt:P28221 as test system.
Output line: 6.48

Input line: Find the measured pKi of CN(C)CCc1cn(S(=O)(=O)c2ccccc2)c2ccccc12 with UniProt:P28221 as test system.
Output line: 6.29

Input line: Find the measured pKi of CN(C)CCc1cccc2c1ccn2S(=O)(=O)c1ccccc1 with UniProt:P28221 as test system.
Output line: 8.03

====

Entries and their measured Ki follow.
molecular target: 5-hydroxytryptamine receptor 1A (Homo sapiens, UniProt P08908); assay: Binding affinity against 5-hydroxytryptamine 1A receptor in HeLa cells was determined using [3H]5-HT
Sequence (P08908 whole entry): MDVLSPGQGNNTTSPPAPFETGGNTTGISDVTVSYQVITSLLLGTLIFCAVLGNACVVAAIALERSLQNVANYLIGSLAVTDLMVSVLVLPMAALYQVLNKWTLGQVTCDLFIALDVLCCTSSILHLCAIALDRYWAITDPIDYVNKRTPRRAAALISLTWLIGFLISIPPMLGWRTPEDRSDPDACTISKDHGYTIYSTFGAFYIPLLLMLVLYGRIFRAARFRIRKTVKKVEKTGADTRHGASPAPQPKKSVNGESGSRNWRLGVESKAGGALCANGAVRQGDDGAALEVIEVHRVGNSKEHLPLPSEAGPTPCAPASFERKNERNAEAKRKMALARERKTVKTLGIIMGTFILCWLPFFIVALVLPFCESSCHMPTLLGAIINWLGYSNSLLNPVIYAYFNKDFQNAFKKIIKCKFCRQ
Answer in nM, number only, no unit symbol.

1. NCCc1cccc2c1ccn2S(=O)(=O)c1ccccc1 :: 140

Input line: Using known records, supply Ki for CN(C)CCc1cccc2c1cc(C(=O)c1ccccc1)n2S(=O)(=O)c1ccccc1
Output line: 480

Input line: Using known records, supply Ki for CCOC(=O)c1[nH]c2ccccc2c1CCN(C)C
Output line: 1800

Input line: Using known records, supply Ki for CN(C)CCc1cccc2c1ccn2S(=O)(=O)c1ccccc1
Output line: 170

Input line: Using known records, supply Ki for CN(C)CCc1cn(C(=O)c2ccccc2)c2ccc(O)cc12
Output line: 620

Input line: Using known records, supply Ki for CN(C)CCc1cn(S(=O)(=O)c2ccccc2)c2ccccc12
Output line: 520

====

biological target: 5-hydroxytryptamine receptor 5A (Rattus norvegicus); assay: Binding affinity against 5-hydroxytryptamine 5A receptor in HEK 293 cells was determined using [3H]LSD as radioligand
Sequence (P35364 whole entry): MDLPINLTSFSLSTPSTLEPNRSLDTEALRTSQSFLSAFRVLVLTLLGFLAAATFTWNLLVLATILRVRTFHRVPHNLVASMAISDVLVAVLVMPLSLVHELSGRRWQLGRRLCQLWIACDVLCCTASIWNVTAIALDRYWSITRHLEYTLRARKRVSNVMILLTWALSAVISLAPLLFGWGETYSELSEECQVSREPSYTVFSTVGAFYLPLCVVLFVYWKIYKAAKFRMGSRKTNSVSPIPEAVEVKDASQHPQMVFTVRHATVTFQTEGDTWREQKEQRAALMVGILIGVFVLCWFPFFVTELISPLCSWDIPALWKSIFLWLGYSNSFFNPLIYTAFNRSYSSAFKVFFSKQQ
Binary call on Ki with cut-off 4 µM: strictly below means y, and equality or higher means n.

1. CN(C)CCc1cn(C(=O)c2ccccc2)c2ccc(O)cc12 :: n
2. NCCc1cccc2c1ccn2S(=O)(=O)c1ccccc1 :: y
3. COc1ccc2c(c1)c(CCN(C)C)cn2S(=O)(=O)c1ccccc1 :: n
4. CN(C)CCc1cccc2c1ccn2S(=O)(=O)c1ccccc1 :: y
5. CN(C)CCc1cccc2c1cc(C(=O)c1ccccc1)n2S(=O)(=O)c1ccccc1 :: y

# ---- query compound ----
Input line: Is the reported Ki for Cc1ccc(S(=O)(=O)n2cc3c4c(cccc42)[C@H](O)[C@@H](N(C)C)C3)cc1 strictly below 4 µM?
Output line: n

====

target: 5-hydroxytryptamine receptor 6 (Homo sapiens); assay: Binding affinity as displacement of [3H]5-HT binding to 5-hydroxytryptamine 6 receptor in HeLa cells.; assay type: cell-based
pKi: −log10 of the molar value.
Rule: pKi of 8 or more gives MET; anything lower gives NOT MET.

Before answering, review these 5 worked examples.
1) CN(C)CCc1cn(S(=O)(=O)c2ccccc2)c2ccc(O)cc12 :: NOT MET
2) COc1ccc2c(c1)c(CCN1CCOCC1)cn2S(=O)(=O)c1ccccc1 :: NOT MET
3) COc1ccc2[nH]c(C)c(CCN(C)C)c2c1 :: NOT MET
4) NCCc1cccc2c1ccn2S(=O)(=O)c1ccccc1 :: MET
5) CN(C)CCc1cccc2c1ccn2S(=O)(=O)c1ccccc1 :: MET

Input line: Reported pKi at or above 8? COc1ccc2c(c1)C(CCN(C)C)CN2S(=O)(=O)c1ccccc1 (stereo unspecified)
Output line: NOT MET

Input line: Reported pKi at or above 8? CN(C)CCc1cn(S(C)(=O)=O)c2ccccc12
Output line: NOT MET

====

Biological target: UniProt P30939
Sequence (P30939 whole entry): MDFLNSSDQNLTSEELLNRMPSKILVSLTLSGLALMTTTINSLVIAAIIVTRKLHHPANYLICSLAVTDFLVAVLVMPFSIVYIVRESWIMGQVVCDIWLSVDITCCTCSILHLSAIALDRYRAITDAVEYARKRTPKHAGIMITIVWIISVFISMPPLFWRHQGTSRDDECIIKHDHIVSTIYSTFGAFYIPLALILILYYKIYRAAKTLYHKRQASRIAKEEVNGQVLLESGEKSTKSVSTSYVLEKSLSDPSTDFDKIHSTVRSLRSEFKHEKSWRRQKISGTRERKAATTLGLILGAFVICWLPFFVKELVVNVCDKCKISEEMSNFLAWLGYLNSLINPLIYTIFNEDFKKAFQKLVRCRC
Test: Binding affinity against 5-hydroxytryptamine 1F receptor in CHO using [3H]5-HT radioligand
quantityName: pKi
// field semantics: pKi = negative decimal log of concentration (mol/L)

Input line: Using known records, supply pKi for CN(C)CCc1cn(C(=O)c2ccccc2)c2ccc(O)cc12
Output line: 7.54

====

target: UniProtKB P35462; assay: Binding affinity against dopamine receptor D3 in HEK 293 cells using [3H]spiperone radioligand
Sequence (P35462 whole entry): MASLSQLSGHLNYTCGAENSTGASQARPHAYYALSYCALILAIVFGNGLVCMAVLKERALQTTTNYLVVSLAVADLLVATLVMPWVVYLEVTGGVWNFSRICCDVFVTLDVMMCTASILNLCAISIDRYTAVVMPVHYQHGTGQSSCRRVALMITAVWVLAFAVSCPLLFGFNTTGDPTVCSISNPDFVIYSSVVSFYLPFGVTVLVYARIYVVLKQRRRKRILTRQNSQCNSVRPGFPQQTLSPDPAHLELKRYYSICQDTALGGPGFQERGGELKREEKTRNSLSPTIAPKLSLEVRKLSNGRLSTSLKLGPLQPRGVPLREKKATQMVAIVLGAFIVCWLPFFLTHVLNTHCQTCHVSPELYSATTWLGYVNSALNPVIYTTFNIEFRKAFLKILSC
quantityName: pKi
// field semantics: pKi = negative decimal log of concentration (mol/L)

Use the examples below as a reference point.
1. CCOC(=O)c1[nH]c2ccccc2c1CCN(C)C :: 6.96
2. CN(C)CCc1cccc2c1cc(C(=O)c1ccccc1)n2S(=O)(=O)c1ccccc1 :: 7.18

Turning now to a further compound:
Input line: Using known records, supply pKi for COc1ccc2c(c1)c(CCN(C)C)cn2S(=O)(=O)c1ccccc1
Output line: 7.10
